Molecular target: T1, human Protein S (human, UniProt P07225 42-676)
T1 sequence: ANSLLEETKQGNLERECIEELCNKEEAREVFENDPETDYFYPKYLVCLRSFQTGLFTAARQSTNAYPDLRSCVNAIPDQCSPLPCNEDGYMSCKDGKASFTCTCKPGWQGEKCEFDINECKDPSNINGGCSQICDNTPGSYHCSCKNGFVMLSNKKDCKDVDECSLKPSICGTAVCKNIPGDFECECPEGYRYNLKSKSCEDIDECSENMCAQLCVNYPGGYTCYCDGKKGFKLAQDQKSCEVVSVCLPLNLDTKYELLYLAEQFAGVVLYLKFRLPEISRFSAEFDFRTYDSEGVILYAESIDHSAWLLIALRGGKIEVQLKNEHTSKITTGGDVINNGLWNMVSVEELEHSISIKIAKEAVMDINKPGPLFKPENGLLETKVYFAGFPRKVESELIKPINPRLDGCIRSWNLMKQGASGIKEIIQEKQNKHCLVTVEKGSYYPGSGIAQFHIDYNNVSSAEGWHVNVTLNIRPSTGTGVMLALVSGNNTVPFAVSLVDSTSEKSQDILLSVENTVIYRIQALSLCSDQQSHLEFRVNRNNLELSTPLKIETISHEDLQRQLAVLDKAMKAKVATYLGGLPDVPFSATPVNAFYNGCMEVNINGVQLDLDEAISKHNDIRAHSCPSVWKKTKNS
Test: cell-based or functional assay
# CAT EC50 per entry
In your response, put the unit directly after the numeric value.

Here is how some binders turned out for CAT EC50.
Ac-TPHVSAGWYDYNFDHYREFT-NH2 [JBS2629]: 25 nM
Ac-TGHVSAGWYDYNFDAYREFT-NH2 [JBS2528]: 23 nM
Ac-TGHVSAGWYDYNFDLYREFT-NH2 [JBS2584]: 9 nM

May I ask what CAT EC50 has been recorded for Ac-TGHVSAGWYDYNADHYREFT-NH2 [JBS2526] ?
19 nM

// returns reported CAT EC50 for input Ac-TGKVSAGWYDYNFDHYREFT-NH2 [JBS2592]
68 nM

Item Ac-TGHVSAGWYDYNFDDYREFT-NH2 [JBS2546] has what recorded CAT EC50?
30 nM

Tell me the measured CAT EC50 of Ac-TGHVSAGWYDYNFDKYREFT-NH2 [JBS2604] , please.
19 nM
